assay: CREB reporter modulators without forskolin, primary screen, cell-based, PC12, CRE-LacZ reporter, unstimulated (AID 1145); settings: no forskolin, luminescence, 4.5 h, higher = more signal, called active from +8 up or from −8 down
Tick 1 if z-score is 0.07 or greater. Tick 0 if z-score is less than 0.07.

Check if z-score >= 0.07 (inclusive). Item: C=C1C(=O)C=C2CN(C(=O)c3ccccc3)[C@@](Cc3ccc(F)cc3)(C(=O)OC)[C@@H]12 0

Given CC(C)[Si](C#Cc1ccccc1)(O[C@H](c1ccccc1)c1cn(Cc2ccccc2)nn1)C(C)C , state whether its z-score is at least 0.07. 0

Determine whether this compound has z-score no lower than 0.07: CCCCN1CC=CC23O[C@@H]4/C=C\CCCOC(=O)C4[C@H]2C(=O)N(CCCCCCO)[C@@H]3C1=O (some centres not stated) 1

State whether the measured z-score reaches 0.07, counting equality as reaching it, for COc1ccc(C(O)C2C=CC3C(=O)N(c4ccccc4)C(=O)C3N2Nc2ccccc2F)c2ccccc12 (configuration not stated) 1

Exam item: decide whether the reported z-score for C=CCNC(=O)[C@@H]1[C@H]2C(=O)O[C@H](c3ccccc3)[C@H](c3ccccc3)N2[C@H](c2ccc(OCCO)cc2)[C@@]12C(=O)Nc1ccc(C#CC3=CCCCC3)cc12 is at least 0.07. 1

Reported z-score at or above 0.07? C[C@]12C(=O)N(CCO)[C@@H]3C(=O)N(c4ccc(Cl)cc4)CC=CC31O[C@@H]1/C=C\CCCOC(=O)C12 (some centres not stated) 1

###

target: Torsin-1A-interacting protein 1 (Homo sapiens); test: LAP1 binders from COS7 cell lysate, primary screen, small-molecule microarray, 635/667 nm fluorescence (AID 1116); conditions: COS7-hLAP1 lysate binding, 635 nm fluorescence, higher = more signal
Record Y whenever composite z-score is at 0.8 or higher; record N when lower.

Would you say COc1ccc(-c2cc3c(c(CCc4ccccc4)n2)[Si](C(C)C)(C(C)C)O[C@H]3c2ccccc2)cn1 shows composite z-score at minimum 0.8? N

Record [N-]=[N+]=NCc1ccccc1C[C@@]1(C(=O)NCCN2CCOCC2)N=C(c2ccc(OCCCO)cc2)O[C@@H]1c1ccccc1 ; criterion: composite z-score no lower than 0.8. Met? Y

Item O=C1C2C=CC(C(O)C3CC=CCC3)N(Nc3ccc([N+](=O)[O-])cc3)C2C(=O)N1c1ccccc1 (stereo not drawn) with composite z-score of 0.8 or above? Y

Decide: is the reported value of composite z-score for CCCCC(=C=CC[C@@H](O)c1ccccc1OCCO)C[C@@H](O)c1ccccn1 equal to or greater than 0.8? N

Decide: composite z-score of CC1C2C(CCCO)=CC(C3C(=O)N(C)C(=O)C23)N1Cc1cccc(OC(F)(F)F)c1 (stereo not drawn) >= 0.8? Y

Reported composite z-score at or above 0.8? CC(C)[Si](C#Cc1ccccc1)(O[C@H](c1ccccc1)c1cn(Cc2ccccc2)nn1)C(C)C N

Is composite z-score at least 0.8? Consider COC(=O)[C@]1(Cc2ccccc2CN=[N+]=[N-])N=C(c2ccc(OCCCO)cc2)O[C@@H]1c1ccccc1N=[N+]=[N-] Y

Does the molecule CCCCC(=C=CC[C@H](O)c1cccc(OCCO)c1)C[C@H](O)c1cc(Cl)cc(Cl)c1O have recorded composite z-score that is 0.8 or more? Y

###

assay: HepG2 liver cancer cell viability effects, profiling panel, resazurin fluorescence, 24 h, PK04 Diversity Set (AID 1172); settings: higher = more signal; further: test concentration not given here
Could you label it satisfied if measured z-score is -0.9 or higher, and not satisfied otherwise?

API: above_or_equal(metric=z-score, cutoff=-0.9) for item COc1cc(Cc2cc3c(c(-c4ccccc4)n2)[Si](C(C)C)(C(C)C)OC3)cc(OC)c1OC satisfied

Textbook exercise: given the entry O=C1O[C@H](c2ccccc2)[C@H](c2ccccc2)N2[C@H]1[C@@H](C(=O)Nc1nc3ccccc3s1)[C@]1(C(=O)Nc3ccccc31)[C@H]2c1ccccc1OCCO , state whether its z-score is greater than or equal to -0.9. satisfied

Please check the record CC(C)c1ccc(NN2C(C(O)C(C)c3ccccc3)C=CC3C(=O)N(c4ccccc4)C(=O)C32)cc1 (stereo unspecified) and state if its z-score is at or above -0.9. not satisfied

Kindly determine if z-score recorded for C=C[C@H](C)[C@@H](OC(=O)Nc1ccc(SC)cc1)c1ccc(OCCO)cc1 is above or exactly -0.9. not satisfied

Please check the record CC(C)c1ccc(NN2C(C(O)C3=C[C@H]4C[C@@H](C3)C4(C)C)C=CC3C(=O)N(c4ccccc4)C(=O)C32)cc1 (stereo partly specified) and state if its z-score is at or above -0.9. not satisfied

Test whether the compound Cc1ccc(N2C(=O)c3ccccc3[C@@H](C(=O)NCCN3CCOCC3)[C@@H]2c2ccc(CO)cc2)nc1 records z-score of -0.9 or higher. satisfied

API: above_or_equal(metric=z-score, cutoff=-0.9) for item CC(C)N1CC=CC23O[C@@H]4/C=C\CCCOC(=O)C4[C@H]2C(=O)N(C(C)CO)[C@@H]3C1=O (stereo partly specified) satisfied

Hi, just wondering whether Cc1ccc(S[C@]2(C(=O)NC3CC3)CC(=O)N(C3Cc4ccccc4C3)[C@@H]2c2ccc(CO)cc2I)cc1 shows z-score of -0.9 or higher. satisfied

Assess whether reported z-score for C=CCN1C(=O)[C@@]2(O[C@@H](CCO)[C@H]([Si](C)(C)c3ccc(OC)cc3)[C@H]2C)c2cc(N3CCCCC3=O)ccc21 sits at -0.9 or higher. not satisfied

For this compound, is measured z-score -0.9 or higher? C=C(CCCC)C(=O)CC[C@@H](OC(C)=O)c1ccc(OCCO)cc1 satisfied

API: above_or_equal(metric=z-score, cutoff=-0.9) for item COC(=O)[C@]1(Cc2ccccc2CN=[N+]=[N-])N=C(c2ccc(OCCCO)cc2)O[C@@H]1c1ccccc1N=[N+]=[N-] not satisfied

z-score >= -0.9 for COC(=O)[C@@]1(Cc2ccc(F)cc2)[C@H]2c3cc(C(=O)N4CCCC4)n(CCSCCO)c3C[C@H]2CN1C(=O)c1ccccc1 ? satisfied

Is z-score at least -0.9? Consider [N-]=[N+]=Nc1ccccc1C[C@@]1(C(=O)NCC(O)CO)N=C(c2ccc(OCCCO)cc2)O[C@@H]1c1ccccc1N=[N+]=[N-] (stereo partly specified) not satisfied

Is it the case that CC(C)N1C(=O)[C@@]2(Cc3ccccc31)c1ccccc1C(=O)N(Cc1ccccc1C(F)(F)F)[C@H]2c1ccc(CO)cc1 has z-score reaching or exceeding -0.9? satisfied

###

test: A549 lung cancer cell viability effects, profiling panel, resazurin fluorescence, 24 h, PK04 Diversity Set (AID 1171); conditions: higher = more signal, called active from +8 up or from −8 down; further: test concentration not given here
Outcome label depends on z-score relative to -0.6: at/above gives Criterion met, below gives Criterion not met.

Confirm if z-score reported for the compound CC[C@@H]1C=C(C(=O)O)[C@H](c2cccc(Cl)c2)N1S(=O)(=O)c1ccc(C)cc1 is -0.6 or above. Criterion not met

Confirm if z-score reported for the compound CCOC(=O)C[C@H]1[C@H](OC(=O)c2ccc(-c3ccccc3)cc2)[C@@H](NC(=O)c2ccc(-c3ccccc3)cc2)c2cc(OCCCO)ccc2N1C(=O)c1ccccc1 is -0.6 or above. Criterion not met

# bool: z-score of CC(C)(C)OC(=O)CC[C@@]1(C(=O)N2CCOCC2)N=C(c2ccc(OCCCO)cc2)O[C@@H]1c1ccccc1CN=[N+]=[N-] >= -0.6 Criterion met

Item O=C(NCC(F)(F)F)[C@@H]1c2ccccc2C(=O)N(Cc2cc(C(F)(F)F)cc(C(F)(F)F)c2)[C@H]1c1ccc(CO)cc1 with z-score of -0.6 or above? Criterion met

Could you tell me if the measured z-score of COC(=O)[C@@]1(Cc2ccc(OC)cc2)[C@@H]2[C@@H](CC(=O)[C@H]2CC(=O)C(=O)N(C)C)CN1C(=O)c1ccccc1 reaches -0.6 or more? Criterion not met

Would you say C=C(COC)/C(=C/C[C@@H](OC(C)=O)c1cccc(OCCO)c1)c1cnc2ccccc2c1 shows z-score at minimum -0.6? Criterion not met

hey, is z-score for this one >= -0.6? CC(C)c1ccc(NN2C(C(O)C(C)c3ccccc3)C=CC3C(=O)N(c4ccccc4)C(=O)C32)cc1 (stereo not drawn) Criterion not met

Decide: is the reported value of z-score for COC(=O)[C@@]1(Cc2ccccc2)[C@H]2c3cc(C(=O)N(C)C)n(CCF)c3C[C@H]2CN1C(=O)c1ccccc1 equal to or greater than -0.6? Criterion not met

###

assay: small-molecule microarray binders of probe aWnt5a, primary screen, biochemical, biotinylated probe, 635/667 nm fluorescence (AID 1113); conditions: higher = more signal;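 further: score merges 667 nm fluorescence intensity with signal-to-noise per printed feature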
Rule: YES for composite z-score not less than 0.008, NO for anything less.

Answer whether composite z-score of COCCCNC(=O)[C@@]1(c2ccc([N+](=O)[O-])cc2)CC(=O)N(C2CCCCC2)[C@@H]1c1ccc(CO)cc1I is greater than or equal to 0.008. NO

Decide: is the reported value of composite z-score for C[N+](C)(C)CCCC[C@@H]1NC(=O)[C@H]2C[C@@H](C(=O)NCCCCCN)[C@@H](c3ccc(O)cc3)N2C1=O equal to or greater than 0.008? NO

Given CCCC[C@@H](O)C1=C(C)Cn2c(=O)n(-c3ccccc3)c(=O)n2[C@H]1CO , state whether its composite z-score is at least 0.008. NO

Say whether COCCOC(=O)N1C(=O)[C@@]2(c3cc(C#CCNC(N)=O)ccc31)[C@H](c1ccc(O)cc1)N1[C@H](c3ccccc3)[C@H](c3ccccc3)OC(=O)[C@H]1[C@@H]2C(=O)N1CCc2cc(OC)c(OC)cc2C1 shows composite z-score of 0.008 or more. YES

Quick check: does Cc1ccc(S(=O)(=O)N2[C@@H](c3ccccc3)C(C(=O)O)=C[C@H]2C(C)(C)C)cc1 have composite z-score greater than or equal to 0.008? NO

Check if composite z-score >= 0.008 (inclusive). Item: COC(=O)Cn1c(C(=O)N(C)C)cc2c1C[C@H]1CN(C(=O)c3ccccc3)[C@@](Cc3ccccc3)(C(=O)OC)[C@@H]21 NO

Hi, just wondering whether COC(=O)C1(CC(C)C)C=C2C(=C(C)C(=O)C2C)CN1 (configuration not stated) shows composite z-score of 0.008 or higher. YES

From: PubChem BioAssay
